assay: NCI Yeast Anticancer Drug Screen. Data for the mlh1 rad18 strain (AID 175); details: S. cerevisiae mlh1 rad18 strain growth inhibition; at 50.0 µM; stronger effect = higher value
The panel holds about 79,000 compounds, 15% with a hit somewhere; the sample as a whole holds those more often.
For each of the molecules below, state its growth inhibition.
Numbers only, in %.

Sample records with growth inhibition:
> print(dat)
                                   molecule         metricname  value
1   C=CCCCCCCCCC(=O)N/N=C/c1ccc(NC(C)=O)cc1  growth inhibition    7.1
2                        Cc1nc(N)nc2ccccc12  growth inhibition  -16.1
3  COc1cc2c(cc1OC)C[N+]1(C)CCc3cc(OC)c(OC)cc3C1C2 (configuration not stated)  growth inhibition  -5.55
4  CCOC(=O)Nc1c2ccccc2c(NC(=O)OCC)c2cc(Cl)ccc12  growth inhibition   19.8

Parameters: items (list). Returns: growth inhibition for each item.
1. S=c1nn[nH]n1-c1cccc2ccccc12
2. Cc1cc2oc3ccccc3c(=O)c2c(C)c1Cl
3. CC(=O)c1c[nH]c(=O)c2cc3c(cc12)OCO3
4. COC(=O)C1c2ccc(C)cc2-c2cc(C)ccc21
5. CC(C)(C)OC(=O)NC(CSSCC(NC(=O)OC(C)(C)C)C(=O)O)C(=O)O (configuration not stated)
6. Clc1cc(Cl)nc(Cl)n1

-3.8
-3.6
-8.3
32.6
-6.4
-1.65

Parameters: items (list). Returns: growth inhibition for each item.
1. COc1cccc(N=Nc2c(-c3ccccc3)nn(C(=S)S)c2C)c1
2. O=C(Cc1ccc2cc3c(cc2c1)OCO3)NCCc1ccc2c(c1)OCO2

1: 20.6; 2: 8.8

* * *

assay: NCI Yeast Anticancer Drug Screen. Data for the mec2-1 strain (AID 157); details: S. cerevisiae mec2-1 strain, at 50.0 µM, stronger effect = higher value
About 79,000 compounds went through this panel and 15% of them were active in at least one assay; those are over-represented in the sample as a whole.
For each of the compounds below, state its growth inhibition.
Give bare numbers, in %.

Sample records with growth inhibition:
> print(dat)
                                   compound  value
1  CCOC(=O)/C(C#N)=C/c1ccc([N+](=O)[O-])cc1  -2.75
2           Cc1csc[n+]1C/C(=N/O)c1ccc(I)cc1  -3.75
3  O=[N+]([O-])c1cc(/C=N\NS(=O)(=O)c2ccc(Cl)cc2)c(O)c([N+](=O)[O-])c1    7.2
4  COC(=O)C1(C)CCCC2(C)C3CC4OC4(C(C)C)CC3(O)CCC12 (configuration not stated)   6.85
5  COc1ccccc1NC(=O)C1=C(C)NC(C)=C(C(=O)Nc2ccccc2OC)C1c1ccc(N(C)C)cc1   41.4
6  IC1CCC2OC1CCC2I (configuration not stated)   1.75
7       CCNC(=O)C1CCN(Cc2c[nH]c3ccccc23)CC1    0.1
8        N=C1N=C(N)c2cc3c(cc21)SCCSCCCSCCS3   1.95

Parameters: items (list). Returns: growth inhibition for each item.
1. CC(O)CNCC(C)(C)N (configuration not stated)
2. Cc1ccc2c(c1)C(C)CC2(C)C (configuration not stated)

1. -4.65
2. -6.55

Parameters: items (list). Returns: growth inhibition for each item.
1. CN1CCCc2cccc(NC(=O)C3CCCNC3=O)c21 (configuration not stated)
2. NC1=NN(c2ccccc2)C(=O)C1C(=O)C(=O)Nc1ccc(Cl)c(Cl)c1 (configuration not stated)

1. 1.35
2. -23.8

* * *

assay: NCI Yeast Anticancer Drug Screen. Data for the mlh1 rad18 strain (AID 175); settings: S. cerevisiae mlh1 rad18 strain growth inhibition; at 50.0 µM; stronger effect = higher value
The panel holds about 79,000 compounds, 15% with a hit somewhere; the sample as a whole holds those more often.
metricName: growth inhibition (%)
Numbers only, in %.

Sample records with growth inhibition:
> print(dat)
                                   molecule  value
1  COc1ccc2cc(C(C)C(O)c3cc(F)c(F)c(F)c3F)ccc2c1 (stereo unspecified)  -20.5
2               Nc1ccc2cc(S(=O)(=O)O)ccc2c1  -6.05
3  Cc1cc(N(CCC#N)CCC#N)ccc1/C=C1N=C(/C=C\c2ccccc2)N(c2ccc(C(=O)O)cc2)C\1=O  -26.1
4                 O=[S@@]1Nc2cc3ccccc3cc2S1   39.2
5              c1ccc(N2CCN(c3ccccn3)CC2)nc1   -5.1

Parameters: items (list). Returns: growth inhibition for each item.
1. COc1ccc2c(c1)C(O)C(NCc1ccccc1)C2 (stereo unspecified)
2. S=C(c1ccccc1Cl)N1CCOCC1

-8.55
13.8

Parameters: items (list). Returns: growth inhibition for each item.
1. O=C(NCCCCCCNC(=O)c1cc(-c2ccccc2)nc2ccccc12)c1cc(-c2ccccc2)nc2ccccc12
2. O=C(NCN1CCOCC1)Nc1ccc(Cl)cc1
3. O=C(Nc1cccc(Cl)c1Cl)c1cc(/C=C/c2ccc([N+](=O)[O-])cc2)on1
4. O=C1CN(/N=C/c2ccc(-c3ccc(Cl)c(Cl)c3)o2)C(=O)N1

1: -17.4; 2: -3.25; 3: -3.85; 4: 5.5

* * *

assay: NCI Yeast Anticancer Drug Screen. Data for the mec2-1 strain (AID 157); conditions: S. cerevisiae mec2-1 strain, at 50.0 µM, stronger effect = higher value
This is part of a sample that, as a whole, favours compounds with a hit. Of some 79,000 tested, about 15% had one in any assay. Active and inactive are the calls of the source. Cut-off read from the data, not from the text of the source: active = growth inhibition above about 70%; inactive = the rest.
For each of the compounds below, state its growth inhibition.

> print(dat)
                                   compound             value
1  CC(C)=CCCC(=O)C(c1nc2n(c1O)C(=N)N=N2)c1nc2n(c1O)C(=N)N=N2 (stereo unspecified)  7.65% (inactive)
2   C/C(=C(/C)c1cc[n+](C)cc1)c1cc[n+](C)cc1  60.6% (inactive)
3   CCOC(=O)c1ccccc1OC(=O)Oc1ccccc1C(=O)OCC  10.2% (inactive)

Parameters: items (list). Returns: growth inhibition for each item.
1. CC(C)Oc1ccc(C(=O)OCCC(C)N2CCCC2)cc1 (stereo unspecified)
2. Cc1cc(C)c(S(=O)(=O)ONC(=O)OC(C)(C)C)c(C)c1
3. O=C1c2ccccc2C(O)N1CCc1c[nH]c2ccccc12 (stereo unspecified)

1. 36.7% (inactive)
2. -3.9% (inactive)
3. -24.1% (inactive)

* * *

experiment: NCI Yeast Anticancer Drug Screen. Data for the rad50 strain (AID 155);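 further: 0% = growth of vehicle-only cultures of the same strain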; conditions: S. cerevisiae rad50 strain growth inhibition; at 50.0 µM
This is part of a sample that, as a whole, favours compounds with a hit. Of some 79,000 tested, about 15% had one in any assay. The source made the active and inactive calls. Cut-off read from the data, not from the text of the source: active = growth inhibition above about 70%; inactive = the rest.
Mark one answer only. Choices: 1.0 = active, 0.0 = inactive

> print(dat)
                           compound  cat
1  COc1nc2[nH]c(C)cc(=O)c2c2ccccc12  0.0

How did this test come out for Cc1ccc(NC(=O)NC23CC4CC(CC(F)(C4)C2)C3)cc1 ?
0.0

How did this test come out for Cc1ccc(S(=O)(=O)OC2C(C)OCOC3COCOC32)cc1 (stereo not drawn) ?
0.0

How did this test come out for Cc1ccccc1S(=O)(=O)N1C(=O)c2ccccc2S1(=O)=O ?
0.0

How did this test come out for Cc1cc(C(=O)O)c(C(=O)O)c(=O)[nH]1 ?
0.0

How did this test come out for Clc1ccc(C=Nc2ccc3c(c2)Cc2ccccc2-3)c(Cl)c1 ?
0.0

How did this test come out for CCCCCCCCCCCCCCCCCC#N ?
0.0

How did this test come out for CC(O)CNCC(C)(C)N (stereo not drawn) ?
0.0

How did this test come out for CC(=NNC(=S)Nc1ccccc1)c1cccc(C(C)=NNC(=S)Nc2ccccc2)n1 ?
0.0

How did this test come out for CC(=O)OC1/C=C(\C)C(OC(C)=O)C/C=C(/C)CCC2C(/C=C/C1=O)C2(C)C (stereo not drawn) ?
1.0

How did this test come out for COC(=O)C1CCCN1C(c1ccccc1)(c1ccccc1)c1ccccc1 (stereo not drawn) ?
0.0

How did this test come out for CCOC(=O)Cc1ccccn1 ?
0.0

* * *

experiment: NCI Yeast Anticancer Drug Screen. Data for the mlh1 rad18 strain (AID 175); conditions: S. cerevisiae mlh1 rad18 strain growth inhibition; at 50.0 µM; stronger effect = higher value
The panel holds about 79,000 compounds, 15% with a hit somewhere; the sample as a whole holds those more often.
metricName: growth inhibition (%)
Give bare numbers, in %.

> print(dat)
                                   molecule  value
1  Cc1ccc(C2=Nn3c(nc4sc5c(c4c3=O)CCCC5)SC2)cc1  -21.8
2  CC(=O)OCC(C)(C)C(OC(C)=O)C(C)C (configuration not stated)   11.2
3            COc1c2cccc(Cl)c2cc2c(Cl)cccc12   12.5
4  CCc1cc2c(cc1C(=O)CCN1CCCC1)C(C)(C)CCC2(C)C   99.8
5  CCCc1cc(=O)oc2c3c(cc(OC(C)C)c12)O[C@H](C)[C@H](C)[C@@H]3O   18.8
6             CN(C)CCSC(=Nc1ccccc1)N1CCCCC1   -9.6
7    CCOC(=O)C(=Cn1ccc(=O)[nH]c1=S)C(=O)OCC  -10.3
8                   CN(C)/C=C/C(=O)c1ccccc1   8.95

Parameters: items (list). Returns: growth inhibition for each item.
1. NC(Cc1ccc(O)cc1)C(=O)NCCS(=O)(=O)O (configuration not stated)
2. Cc1cc(N=[N+]=[N-])c2ccc(Cl)cc2n1
3. CC(=O)C(C)CO (configuration not stated)
4. COC(=O)C1(CC(=O)Cc2ccccc2)NC(=S)NC(=O)C1C#N (configuration not stated)

1. 0.65
2. 33.1
3. 13.7
4. 4.8

Hey, just so you know, these numbers are from PubChem BioAssay (NCI).
